Data provenance is paper PMC12118597.

system_under_test: SARS-CoV-2 NSP3 macrodomain (Mac1) (Severe acute respiratory syndrome coronavirus 2, UniProt P0DTD1)
method: biochemical
Type: binding
condition_parameters: Single dose, concentration 200 μM
Property: Average % competition; scope: individual compounds
measurement_label: Average % competition (%)

- OCC(Cc1ccoc1)Nc1ncnc2[nH]ccc12 (stereo not drawn): 64
- OCC(Cc1ccccn1)Nc1ncnc2[nH]ccc12 (stereo not drawn): 34
- Cn1cc(CC(CO)Nc2ncnc3[nH]ccc23)cn1 (stereo not drawn): 24

----------
system_under_test: SARS-CoV-2 NSP3 macrodomain (Mac1) (Severe acute respiratory syndrome coronavirus 2, UniProt P0DTD1)
Type: binding
condition_parameters: stereoisomer(s) modeled as bound, residues 201/202/203
measurement_label: Isomers modeled

- Cc1ccc(CC(CO)Nc2ncnc3[nH]ccc23)cc1 (centres unmarked): S,R
- NC(=O)C1(O)CCN(c2ncnc3[nH]ccc23)C1 (centres unmarked): S,S
- OCC1C2CCC(C2)N1c1ncnc2[nH]ccc12 (centres unmarked): SSR
- OCC(Cc1ccccc1)Nc1ncnc2[nH]ccc12 (centres unmarked): S,R
- OCC(COCc1ccccc1)Nc1ncnc2[nH]ccc12 (centres unmarked): S,R
- OCC(Cc1ccccn1)Nc1ncnc2[nH]ccc12 (centres unmarked): R,S
- CN1CCN(c2ncnc3[nH]ccc23)C(CO)C1 (centres unmarked): R,R
- CC(CNC(=O)c1ccc2c(c1)CCC(=O)N2)C(=O)O (centres unmarked): R,S

----------
system_under_test: SARS-CoV-2 NSP3 macrodomain (Mac1) (Severe acute respiratory syndrome coronavirus 2)
method: biochemical
Type: binding
condition_parameters: read-out: IC50 (confirmatory HTRF dose-response screen)
pIC50: −log10 of the molar value.
measurement_label: pIC50

• CC(O)C1CCCN1c1ncnc2[nH]ccc12 (stereo not drawn) = 4.26
• Cc1c[nH]c2ncnc(NCC3(O)CCCCC3)c12 = 4.89
• CC(c1ccccc1)C(CO)Nc1ncnc2[nH]ccc12 (stereo not drawn) = 5.06
• O=C(O)C(F)(F)F.OC1([C@H]2CCCN2c2ncnc3[nH]ccc23)Cc2ccccc2C1 = 5.43
• CC(C)(O)[C@@H]1CCCN1c1ncnc2[nH]ccc12 = 3.96
• CC(CNC(=O)c1ccc2c(c1)CCC(=O)N2)C(=O)O (stereo not drawn) = 3.66
• OCCC(CO)Nc1ncnc2[nH]ccc12 (stereo not drawn) = 4.28
• Cc1c[nH]c2ncnc(NCC(C)(C)O)c12 = 4.55
• OCC(Cc1ccccc1)Nc1ncnc2[nH]ccc12 (stereo not drawn) = 3.89
• O=S1(=O)CCCC(O)(CNc2ncnc3[nH]ccc23)C1 (stereo not drawn) = 3.96
• CC(C)(O)C1C2CCC2CN1c1ncnc2[nH]ccc12 (stereo not drawn) = 4.62
• CC(C)(O)[C@H]1CCCN1c1ncnc2[nH]ccc12 = 5.29

----------
system_under_test: SARS-CoV-2 NSP3 macrodomain (Mac1) (Severe acute respiratory syndrome coronavirus 2)
method: biochemical
Format: binding
condition_parameters: single dose concentration 200 μM (TS-FrankenROCS series)
measurement_label: Average % competition (%)

- Cc1ncc(CN(C)C(=O)c2cccc(N)c2F)s1: 14
- Cc1cc2c(=O)n(CCN3C(=O)c4ccccc4S3(=O)=O)nnc2s1: 11
- CNc1ccc(NS(=O)(=O)c2cc3cccc(C)c3s2)cn1: 18

----------
system_under_test: SARS-CoV-2 NSP3 macrodomain (Mac1) (Severe acute respiratory syndrome coronavirus 2, UniProt P0DTD1)
Type: binding
condition_parameters: crystal soak 10 mM; TFA/DMSO background map
measurement_label: PanDDA run, TFA/DMSO background map: 1-BDC

• OCC(Cc1ccc(I)cc1)Nc1ncnc2[nH]ccc12 (stereo not drawn) = 0.19
• O=C(O)C(F)(F)F.OCC12CC(CN1c1ncnc3[nH]ccc13)C2 = 0.12
• OCC(O)C1CCCN1c1ncnc2[nH]ccc12 (stereo not drawn) = 0.16
• OCC(Cc1nccs1)Nc1ncnc2[nH]ccc12 (stereo not drawn) = 0.15
• OCC(CC1CCC1)Nc1ncnc2[nH]ccc12 (stereo not drawn) = 0.11
• Cc1ccccc1CC(CO)Nc1ncnc2[nH]ccc12 (stereo not drawn) = 0.15

----------
system_under_test: SARS-CoV-2 NSP3 macrodomain (Mac1) (Severe acute respiratory syndrome coronavirus 2, UniProt P0DTD1)
method: biochemical
Format: binding
measurement_label: Average % competition (%)

- CC(=O)Nc1ccc(S(=O)(=O)CCCN2C(=O)CC(C)(C(C)C)C2=O)cc1 (stereo not shown): 19
- O=C(O)C1CN(C(=O)c2ccc3n[nH]nc3c2)c2ccccc21 (stereo not shown): 25
- O=C(O)C1CN(C(=O)c2ccc3c(c2)OCCO3)CCO1 (stereo not shown): 7
- Cc1noc(NCc2cc3ccccc3[nH]c2=O)n1: 0
- Cc1ccc(O)c(C(=O)c2cnn3c(N)nnc3c2)c1: 0
- CC(=O)Nc1ccc(NC(=O)CSc2nnnn2C2CCCC2)cc1: 0
- O=C(c1cc(C2CCCCC2)[nH]n1)N1CCCC(O)(C(F)(F)F)CC1 (stereo not shown): 13
- Cc1nn(C)c2sc(C(=O)N3CC(C(=O)O)c4ccccc43)cc12 (stereo not shown): 0

----------
system_under_test: SARS-CoV-2 NSP3 macrodomain (Mac1) (Severe acute respiratory syndrome coronavirus 2, UniProt P0DTD1)
method: biochemical
Assay type: binding
condition_parameters: SARS CoV-2 macrodomain HTRF assay, single dose concentration 200 μM; read-out: Average % competition
Returns one of Yes or No; Yes when inhibition at 200 µM is >= 60%.

• O=C(O)C(F)(F)F.OC[C@@H]1CC2(CC2)CN1c1ncnc2[nH]ccc12 = No
• O[C@H]1CNCC[C@@H]1Nc1ncnc2[nH]ccc12 = No
• OCC1CC2(CCCCC2)CN1c1ncnc2[nH]ccc12 (stereo not drawn) = Yes
• Cc1nn(C)cc1C1CC[C@H](CO)N1c1ncnc2[nH]ccc12 (stereo partly drawn) = No
• CN1CCN(c2ncnc3[nH]ccc23)C(CO)C1 (stereo not drawn) = No
• CC(C)C1CCCN1c1ncnc2[nH]ccc12 (stereo not drawn) = No
• OC1CCN(c2ncnc3[nH]ccc23)C1 (stereo not drawn) = No
• OCC1CC2(CCOCC2)CN1c1ncnc2[nH]ccc12 (stereo not drawn) = No
• CO[C@@H]1C[C@H](CO)N(c2ncnc3[nH]ccc23)C1 = No
• O=C(O)C(F)(F)F.OCC12CC(CN1c1ncnc3[nH]ccc13)C2 = No
• OC[C@H]1CN2CCC[C@H]2CN1c1ncnc2[nH]ccc12 = No
• OC(c1ccccc1)C1CCCN1c1ncnc2[nH]ccc12 (stereo not drawn) = No
• O=C(O)C(F)(F)F.OCC1C2C=CC(C2)N1c1ncnc2[nH]ccc12 (stereo not drawn) = No
• CC(C)(O)[C@@H]1CCCN1c1ncnc2[nH]ccc12 = Yes
• O=C(O)C(F)(F)F.OC[C@H]1CC2(CN1c1ncnc3[nH]ccc13)OCCO2 = No
• CC1CCN(c2ncnc3[nH]ccc23)C1CO (stereo not drawn) = Yes
• OCC(O)C1CCCN1c1ncnc2[nH]ccc12 (stereo not drawn) = No
• CC1(C)CCC(CO)N(c2ncnc3[nH]ccc23)C1 (stereo not drawn) = Yes
• OC[C@@H]1C[C@H](F)CN1c1ncnc2[nH]ccc12 = No
• OCC1CCCN1c1ncnc2[nH]ccc12 (stereo not drawn) = No
• CC(C)(C)[C@@H]1CCN(c2ncnc3[nH]ccc23)[C@H](CO)C1 = No

----------
system_under_test: SARS-CoV-2 NSP3 macrodomain (Mac1) (Severe acute respiratory syndrome coronavirus 2, UniProt P0DTD1)
method: biochemical
Assay type: binding
condition_parameters: compound at 200 μM; mean of three to four technical replicates; read-out: % competition at 200 μM (preliminary HTRF screen)
Binning of inhibition at 200 µM into classes: low value: < 40%; medium value: ≥ 40% and < 60%; high value: ≥ 60%

- OCC(Nc1ncnc2[nH]ccc12)C1CCCC1 (stereo not drawn): high value
- OC[C@@H]1C[C@H](F)CN1c1ncnc2[nH]ccc12: medium value
- OCC(COCc1ccccc1)Nc1ncnc2[nH]ccc12 (stereo not drawn): low value
- CC(C)(C)C1CCC(CO)N(c2ncnc3[nH]ccc23)C1 (stereo not drawn): low value
- OC[C@H]1CN2CCC[C@H]2CN1c1ncnc2[nH]ccc12: low value
- OCC(Cc1nccs1)Nc1ncnc2[nH]ccc12 (stereo not drawn): low value
- Cc1nn(C)cc1C1CC[C@H](CO)N1c1ncnc2[nH]ccc12 (stereo partly drawn): medium value
- CC(C)C1CCCN1c1ncnc2[nH]ccc12 (stereo not drawn): low value
- O=C(O)C(F)(F)F.OCC1C2C=CC(C2)N1c1ncnc2[nH]ccc12 (stereo not drawn): medium value
- O=C(O)C(F)(F)F.OC[C@H]1CC2(CN1c1ncnc3[nH]ccc13)OCCO2: low value
- OCC(Cc1cccs1)Nc1ncnc2[nH]ccc12 (stereo not drawn): high value
- OCC(CC1CCOC1)Nc1ncnc2[nH]ccc12 (stereo not drawn): low value
- O=C(O)C(F)(F)F.OCC(Nc1ncnc2[nH]ccc12)C(O)C1CCCCC1 (stereo not drawn): low value
- O=C(O)C(F)(F)F.OC[C@@H](CCc1ccccc1)Nc1ncnc2[nH]ccc12: low value
- O=C(O)C(F)(F)F.OCC(CC1CCOCC1)Nc1ncnc2[nH]ccc12 (stereo not drawn): low value
- CCC1(O)CCN(c2ncnc3[nH]ccc23)C1 (stereo not drawn): low value
- OCC(Cc1ccc(I)cc1)Nc1ncnc2[nH]ccc12 (stereo not drawn): low value
- CCCC(CO)Nc1ncnc2[nH]ccc12 (stereo not drawn): high value
- Cc1ccc(CC(CO)Nc2ncnc3[nH]ccc23)cc1 (stereo not drawn): low value
- O=C(O)C1CCCN1S(=O)(=O)c1cccc2nsnc12 (stereo not drawn): low value
- C[C@@H](O)[C@H](CO)Nc1ncnc2[nH]ccc12.O=C(O)C(F)(F)F: high value
- O=C(O)C(F)(F)F.OCC(Nc1ncnc2[nH]ccc12)C1CCCO1 (stereo not drawn): medium value
- CC1CCN(c2ncnc3[nH]ccc23)C1CO (stereo not drawn): high value
- O=C(O)C(F)(F)F.OCC(Cc1cccc(F)c1)Nc1ncnc2[nH]ccc12 (stereo not drawn): high value
- CN(C)CC(CO)Nc1ncnc2[nH]ccc12 (stereo not drawn): low value
- CC(C)(C)C(O)CC(CO)Nc1ncnc2[nH]ccc12.O=C(O)C(F)(F)F (stereo not drawn): low value
- CC1CC(C(=O)O)CCN1C(=O)c1ccc2c(c1)OCC(=O)N2 (stereo not drawn): low value
- OCC(CN1CCCCC1)Nc1ncnc2[nH]ccc12 (stereo not drawn): low value
- OCC(CC(O)c1ccccc1)Nc1ncnc2[nH]ccc12 (stereo not drawn): low value
- O=C(O)C(F)(F)F.O=[N+]([O-])c1ccc(C(O)C(CO)Nc2ncnc3[nH]ccc23)cc1 (stereo not drawn): medium value
- O=C(O)C(F)(F)F.OCC12CC(CN1c1ncnc3[nH]ccc13)C2: medium value
- OCC(Nc1ncnc2[nH]ccc12)c1ccco1 (stereo not drawn): medium value
- O=C(O)C(F)(F)F.OC1c2ccccc2CC1Nc1ncnc2[nH]ccc12 (stereo not drawn): low value
- Cc1c(C)n(Cc2ccccc2)c2ncnc(N)c12: low value
- OCC1CCCN1c1ncnc2[nH]ccc12 (stereo not drawn): medium value
- OCC(Cc1ccccn1)Nc1ncnc2[nH]ccc12 (stereo not drawn): low value
- OCC(Cc1c[nH]c2ccccc12)Nc1ncnc2[nH]ccc12 (stereo not drawn): high value
- OCC1CC2(CCC2)CN1c1ncnc2[nH]ccc12 (stereo not drawn): high value
- O[C@@]1(Cn2ccnn2)CCCN(c2ncnc3[nH]ccc23)C1: low value
- OCC(Nc1ncnc2[nH]ccc12)C1CCC1 (stereo not drawn): high value
- OCC1COCCN1c1ncnc2[nH]ccc12 (stereo not drawn): high value
